biological target: ZFP SBS#1496 (synthetic); assay: EMSA; details: tags: MBP fusion
Sequence (chain, as listed by the source): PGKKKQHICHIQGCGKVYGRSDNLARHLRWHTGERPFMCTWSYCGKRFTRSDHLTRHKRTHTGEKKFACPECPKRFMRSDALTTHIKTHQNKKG
PARAMETER MEASURED: Kd (nM)
Please reply with the bare figure in nM and do not write the unit itself.

Any idea what Kd was measured for TTGGGGGAG (dsDNA) DNA 1: TTGGGGGAG DNA 2: CTCCCCCAA ?
0.065
